- Test system: SK-MEL-5 melanoma
- method: NCI tumour cell line growth inhibition, 48 h
measured quantity: TGI

INSERT INTO assay_data (compound, experimental_target, measured_quantity, measured_result) VALUES
  ('O=C(CCN(C(=O)O)S(=O)(=O)c1ccc(NC(=O)c2ccccc2)cc1)NC1CCCCC1', 'SK-MEL-5 melanoma', 'TGI', '> 100 µM'),
  ('CCCn1c(=S)sc2c1nc(C)n1c(Nc3ccccc3)nnc21', 'SK-MEL-5 melanoma', 'TGI', '11.2 µM'),
  ('O=C1CN(C(=O)C2CCCN2C(=O)C2CCCN2)C(=O)CN1 (stereo not given)', 'SK-MEL-5 melanoma', 'TGI', '> 100 µM'),
  ('COc1ccc(NC(=O)CC(=O)N/N=C/c2ccc(N(CCC#N)S(C)(=O)=O)cc2)cc1', 'SK-MEL-5 melanoma', 'TGI', '> 100 µM'),
  ('COc1ccc(-c2onc(N)c2-c2cc(OC)c3c(c2)OCO3)cc1', 'SK-MEL-5 melanoma', 'TGI', '> 25.6 µM');

Attribution: PubChem BioAssay (NCI)
